# assayed system: Abf1 (Saccharomyces cerevisiae) (UniProt P14164)
# Sequence: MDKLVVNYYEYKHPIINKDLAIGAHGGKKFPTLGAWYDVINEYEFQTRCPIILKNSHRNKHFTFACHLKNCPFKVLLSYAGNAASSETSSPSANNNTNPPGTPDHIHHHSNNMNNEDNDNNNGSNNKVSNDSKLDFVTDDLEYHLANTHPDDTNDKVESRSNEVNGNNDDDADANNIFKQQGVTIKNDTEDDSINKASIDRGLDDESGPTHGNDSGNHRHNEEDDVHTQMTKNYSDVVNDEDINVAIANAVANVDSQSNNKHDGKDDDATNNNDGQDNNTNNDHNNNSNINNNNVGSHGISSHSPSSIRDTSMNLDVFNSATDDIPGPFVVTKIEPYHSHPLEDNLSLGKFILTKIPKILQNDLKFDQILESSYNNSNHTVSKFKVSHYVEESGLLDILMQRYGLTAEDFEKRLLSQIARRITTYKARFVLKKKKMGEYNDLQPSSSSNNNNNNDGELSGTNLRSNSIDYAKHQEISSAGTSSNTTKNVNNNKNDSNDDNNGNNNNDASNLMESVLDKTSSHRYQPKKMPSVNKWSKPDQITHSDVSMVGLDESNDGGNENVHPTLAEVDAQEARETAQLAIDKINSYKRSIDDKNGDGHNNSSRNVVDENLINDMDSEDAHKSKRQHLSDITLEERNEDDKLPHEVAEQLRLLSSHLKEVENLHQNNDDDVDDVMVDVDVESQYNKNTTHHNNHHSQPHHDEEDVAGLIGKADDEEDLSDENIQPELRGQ
# experimental protocol: EMSA
# cond: 11.87 mM HEPES-KOH pH 7.9, 3 mM Tris-Cl, 96.67 mM NaCl, 3.33 mM KCl, 5.3 mM MgCl2, 0.13 mM Mg acetate, 1.33 uM ZnCl2, 0.05% NP-40, 10% glycerol, 100 ug/mL BSA …
Provide the recorded Kd for the entries that follow.
Answers are plain numbers, in nM.

Here's what some known entries look like.
* ACAGGATGTATATATCTGACACGTGCCTGGAGACTAGGGAGTAATCCCCTTGGCGGTTAAAACGCGGGGGACAGCGCGTACGTGCGTTTAAGCGGTGCTAGAGCTGTCTACGACCAATTGAGCGGCCTCGGCACCGGGATTCTCCAGGGCGGCCGCTTATCGTATAAAGTGATAGGGTGATGACCGCGGACCTGCAGGCATGCAAGCTTGAGTATTCTATAGTGTCA (double strand) [NC-80/A3G nucleosome] | 2.22
* ACAGGATGTATATATCTGACACGTGCCTGGAGACTAGGGAGTAATCCCCTTGGCGGTTAAAACGCGGGGGACAGCGCGTACGTGCGTTTAAGCGGTGCTAGAGCTGTCTACGACCAATTGAGCGGCCTCGGCACCGGGATTCTCCAGGGCGGCCGCTAATCGTATTGCATGATATGGTGATGACCGCGGACCTGCAGGCATGCAAGCTTGAGTATTCTATAGTGTCA (double strand) [NC-80/A-T nucleosome] | 2.39
* ACAGGATGTATATATCTGACACGTGCCTGGAGACTAGGGAGTAATCCCCTTGGCGGTTAAAACGCGGGGGACAGCGCGTACGTGCGTTTAAGCGGTGCTAGAGCTGTCTACGACCAATTGAGCGGCCTCGGCACCGGGATTCTCCAGGGCGGCCGCTTATCGTATTGCATGATAGGGTGATGACCGCGGACCTGCAGGCATGCAAGCTTGAGTATTCTATAGTGTCA (double strand) [NC-80/T-G nucleosome] | 2.49

Then there is this sequence:
Sure, the documented Kd for ACAGGATGTATATATCTGACACGTGCCTGGAGACTAGGGAGTAATCCCCTTGGCGGTTAAAACGCGGGGGACAGCGCGTACGTGCGTTTAAGCGGTGCTAGAGCTGTCTACGACCAATTGAGCGGCCTCGGCACCGGGATTCTCCAGGGCGGCCGCTTATCGTATTGCATGATATGGTGATGACCGCGGACCTGCAGGCATGCAAGCTTGAGTATTCTATAGTGTCA (double strand) [NC-80/T-T nucleosome] is 2.52

Taken from paper PMC12305957.
